Where these numbers come from: PubChem BioAssay (NCI)

Tested on: SF-295 CNS
assay.comment: NCI-60 one-dose screen, 48 h
condition.details: 10 µM
The panel holds about 83,000 compounds, 20% with a hit somewhere; the sample as a whole holds those more often. The source made the active and inactive calls. How the source made its calls: active means growth percent below 10; inactive means the rest.
Pick one and only one: active, inactive

Take a look at these entries with their results.
> print(dat)
                                   compound  assigned.label
1           COc1cc(C)ccc1C(=O)c1ccc(C)cc1OC          active
2  CC1(C)OC2=C(CC1Br)C(=O)C(=O)c1ccccc12 (stereo unspecified)          active
3  COc1cc2c(cc1OC)N(CCO)C1=C(C(=O)OC1)C2c1ccc(Cl)c(Cl)c1 (stereo unspecified)        inactive

How was `Clc1ccc(Nc2ccnc(NCCNc3ccnc4cc(Cl)ccc34)n2)cc1` classified in this test? active

Next entry: `COc1ccc2c(c1)nc(N)c1c3cccnc3cn21` active

Next entry: `Cc1cc(O)c(C(C)(C)C)cc1Sc1cc(C(C)(C)C)c(O)cc1C` inactive

---

Test system: BT-549 breast
assay.comment: NCI-60 one-dose screen, 48 h
condition.details: 10 µM
This is part of a sample that, as a whole, favours compounds with a hit. Of some 83,000 tested, about 20% had one in any assay. Active and inactive are the calls of the source. How the source made its calls: active means growth percent below 10; inactive means the rest.
Pick one and only one: active, inactive

Take a look at these entries with their results.
> print(dat)
                                    compound  subject.of.test  assigned.label
 1  Cn1c([N+](=O)[O-])cnc1/C=C1\Oc2cc(Cl)ccc2C1=O    BT-549 breast          active
 2  COc1cc(NC(=O)c2sc3nc4c(cc3c2N)C(O)CCC4)cc(OC)c1 (stereo unspecified)    BT-549 breast        inactive
 3  Cn1c([N+](=O)[O-])cnc1/C=C1\Oc2ccc(Cl)cc2C1=O    BT-549 breast          active
 4               c1ccc2c(c1)oc1c3cccnc3ccc21    BT-549 breast        inactive
 5  FC(F)(F)c1ccc2nc(-c3nc(-c4ccccc4)n4ccccc34)[nH]c2c1    BT-549 breast        inactive
 6  COc1ccc(/C(=C2/O[C@@H]([C@H]3COC(C)(C)O3)[C@H]3OC(C)(C)O[C@@H]23)c2cc(OC)c(OC)c(OC)c2)cc1O    BT-549 breast        inactive
 7  CCN(CC)CCNc1ccc(CO)c2oc3cc(Cl)ccc3c(=O)c12    BT-549 breast        inactive
 8           Cc1ncc(-c2ccoc2)c(NC2CCCCCC2)n1    BT-549 breast        inactive
 9  CCN(CC)CCC(=O)Nc1cccc2c1C(=O)c1c(c(O)c3ccccc3c1O)C2=O    BT-549 breast        inactive
10       Cc1nc2c(c(=O)[nH]1)OCN(Cc1ccccc1)C2    BT-549 breast        inactive

How was `COc1ccc(-c2nc3ncccn3c2-c2nnc(-c3ccsc3C)o2)cc1` classified in this test? inactive

Next entry: `O=C(CNC(=O)OCc1ccccc1)NCC(=O)Oc1ccc([N+](=O)[O-])cc1` inactive

Next entry: `O=C1/C(=C\c2ccccc2)CN(C(=O)c2ccccc2F)C/C1=C\c1ccccc1` active

Next entry: `Clc1ccc(Nc2ccnc(NCCCNc3ccnc4cc(Cl)ccc34)n2)cc1` active

---

Can you tell me growth for the items I'm about to list?
Tested on: U251 CNS
assay.comment: NCI-60 one-dose screen, 48 h (100 = growth as untreated, 0 = no growth, -100 = all killed)
condition.details: 10 µM
About 83,000 compounds went through this panel and 20% of them were active in at least one assay; those are over-represented in the sample as a whole.
One number for each entry, in %.

Here is how some compounds turned out for growth.
> print(dat)
                                   compound  readout.value
1                       CC(=O)c1cc(Cl)ccc1O            107
2               O=C(c1ccc(Cl)cc1Cl)N1CCOCC1            105
3  Nc1c(C(=O)Nc2ccccc2Cl)sc2nc3c(cc12)C(=O)CCC3           73.3
4       c1ccc(CNc2ncnc3scc(-c4cccs4)c23)nc1           75.7
5            C/C(=N\Nc1nc2ccccc2s1)c1ccncn1           33.6

Please look at the items below and tell me growth for each one, in order.
1. O=C(Nc1cccc(-n2cc(-c3ccncc3)c(-c3ccc(O)c(Cl)c3)n2)c1)c1ccc(N2CCOCC2)c(C(F)(F)F)c1
2. O=C(Nc1nc2ccc(F)cc2s1)c1cc(-c2ccc(F)cc2)n2nc(-c3ccccc3)cc2n1
3. COc1ccc(-c2nc(-c3nc4cc(Cl)c(F)cc4[nH]3)c3ccccn23)cc1
4. COc1cc(/C=C2\CCCC3=C2N=C2SC=NN2C3c2cc(OC)c(OC)c(OC)c2)cc(OC)c1OC (stereo not given)

-13
102
62.5
8.08

# query: growth | item `N#CCCN1C/C(=C/c2ccc(Cl)cc2)C(=O)/C(=C/c2ccc(Cl)cc2)C1` | system: U251 CNS -95.3

---

Test system: SR leukemia
assay.comment: NCI-60 one-dose screen, 48 h (100 = growth as untreated, 0 = no growth, -100 = all killed)
condition.details: 10 µM
About 83,000 compounds went through this panel and 20% of them were active in at least one assay; those are over-represented in the sample as a whole.
Think of 40% as a floor: if growth stands on it or above, it is Y; beneath it, N.

Take a look at these entries with their results.
> print(dat)
                                   compound  assigned.label
1     CSc1nn(-c2ccccc2)c2ncnc(Oc3ccccc3)c12               Y
2  C[C@]12CC[C@@H]3c4ccc(O)cc4C[C@@H](O)[C@H]3[C@@H]1CC[C@@H]2O               Y
3  COc1cc2cc3c(nc2cc1OC)CCN3Cc1ccc(NC(=O)c2ccc(Cl)c(C(F)(F)F)c2)cc1               Y
4  COc1ccc(-c2nn(-c3cccc(NC(=O)Nc4ccccc4)c3)cc2-c2ccncc2)cc1Cl               N
5  CC(=O)N1C/C(=C/c2ccc(Cl)cc2)C(=O)/C(=C/c2ccc(Cl)cc2)C1               N

For this compound, is measured growth 40% or higher? N#CSCC1CC(O)(c2ccccc2)CC(c2ccc(Cl)cc2)O1 (stereo not given) N

Next entry: `CN(C)N=Nc1nn(C(=O)Nc2ccc(Cc3ccccc3)cc2)c2ccccc12` Y

Next entry: `Cc1nc2ccc(CN(C)c3ccc(C(=O)N[C@@H](CCC(=O)O)C(=O)O)s3)cc2c(=O)[nH]1` Y

Next entry: `N=C(N)c1ccc(-c2ccc(-c3cccs3)o2)cc1` N

Next entry: `Clc1cc2c(c(CSc3nc4ccccc4n4cccc34)c1)OCOC2` N

---

Tested on: HT29 colon
assay.comment: NCI-60 one-dose screen, 48 h (100 = growth as untreated, 0 = no growth, -100 = all killed)
condition.details: 10 µM
This is part of a sample that, as a whole, favours compounds with a hit. Of some 83,000 tested, about 20% had one in any assay.
assay.metric: growth (%)
One number for each entry, in %.

Here is how some compounds turned out for growth.
> print(dat)
                                    compound  display.unit  readout.value
 1  O=C(Nc1cccc(-n2cc(-c3ccncc3)c(-c3ccc(O)c(Cl)c3)n2)c1)Nc1cccc(C(F)(F)F)c1             %             22
 2  CC(C)C[C@H](NC(=O)[C@H](Cc1cccc2ccccc12)NS(=O)(=O)c1cccc2cccnc12)B(O)O             %          -56.6
 3        N=C(N)c1ccc(-c2ccc(-c3ccco3)o2)cc1             %           5.15
 4  CS(=O)(=O)Nc1cccc(-c2cc(-c3ccccc3Cl)c(C#N)c(N)n2)c1             %           15.6
 5  O=S(=O)(NCCNc1nccc(-c2c(-c3ccc(F)cc3)nc3sccn23)n1)c1ccc2ccccc2c1             %           44.9
 6  N#CC1=C(Nc2ccccc2Cl)SC(c2ccccc2O)NC1=O (stereo unspecified)             %            112
 7  O=C(Nc1ccncc1)C(=O)c1cn(S(=O)(=O)c2ccc(F)cc2)c2ccccc12             %           1.81
 8  O=C1C(c2ccccc2)C2C=CC(C2)N1O (stereo unspecified)             %           97.9
 9  COc1cc(-c2nnc(-c3c(-c4ccc(F)cc4)nc4ccccn34)o2)cc(OC)c1OC             %           84.3
10               ClC(Cl)(Cl)c1nc2nccnc2[nH]1             %            102

Please look at the items below and tell me growth for each one, in order.
1. C#Cc1ccc(-n2c(/C=C/c3ccc(Cl)c(F)c3)nc3ncccc3c2=O)cc1
2. Cc1nc2c(c(=O)[nH]1)OCN(Cc1ccccc1)C2
3. CC1(C)OC2=C(CC1Br)C(=O)C(=O)c1ccccc12 (stereo unspecified)
4. COc1ccc(/C=C2/CN(CCC#N)C/C(=C\c3ccc(OC)cc3)C2=O)cc1
5. CCOC(=O)N/N=C\C(C)=N\NC(=O)OCC
6. O=C(Nc1cccc(-n2cc(-c3ccncc3)c(-c3cc(O)cc(Cl)c3)n2)c1)c1ccc(N2CCOCC2)c(C(F)(F)F)c1
7. O=C(Nc1ccc(CO)cc1)c1ccccc1Nc1ccnc(C(F)(F)F)c1
8. CCCCCCN1CCN(Cc2ccc(N(CC)CC)cc2)C(=O)C1=O

[-53.5, 105, -11.7, -37.6, 98, 16.9, 109, 2.25]

Please look at the items below and tell me growth for each one, in order.
1. CO/N=C(/C(=O)NC1C(=O)N2C(C(=O)O)=C(COC(N)=O)CSC12)c1ccco1 (stereo unspecified)
2. O=c1[nH]c(-c2ccc(Cl)cc2)nc2sc3c(c12)CCCC3
3. COc1cc(OC)cc(-c2cncn2-c2ccc(-c3nc4cc(OC)cc(OC)c4s3)cc2)c1

[111, 106, 36.4]
